The measurements presented in this section are drawn from patent US20260242478A1.

Target: T1, Anti-CD28 Fab (SEQ ID NOs: 696, 697)
T1 construct: Used biotinylated and captured on neutravidin coated plates in the phage ELISA
T1 sequence (VH, as listed by the source, chain 1 of 2): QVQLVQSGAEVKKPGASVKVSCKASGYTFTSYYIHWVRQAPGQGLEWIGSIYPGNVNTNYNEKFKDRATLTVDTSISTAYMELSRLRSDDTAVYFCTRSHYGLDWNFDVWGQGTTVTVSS
T1 sequence (VL, as listed by the source, chain 2 of 2): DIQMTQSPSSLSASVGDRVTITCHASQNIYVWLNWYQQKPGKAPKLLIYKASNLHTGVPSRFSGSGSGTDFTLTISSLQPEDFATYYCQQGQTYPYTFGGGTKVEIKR
Experiment: phage ELISA; biotinylated Fab on neutravidin plate, clonal phage supernatant, anti-M13 HRP detection
Where no end group is shown, it is not given here.
For each of the binders below, state its Phage binding ELISA, Anti-CD28 Fab (SEQ ID NOs: 696, 697) signal.

Data point: YCDGHTGVYKWKCI (cysteine pairing not given here; also: fused to phage pIII protein, pIII and linker sequence not given here, Peptide-87 library clone on clonal phage (crude supernatant); not shown: fused to the pIII filament protein of the bacteriophage) [Phage-1274] ; Phage binding ELISA, Anti-CD28 Fab (SEQ ID NOs: 696, 697) signal = 0.76

The value of Phage binding ELISA, Anti-CD28 Fab (SEQ ID NOs: 696, 697) signal measured for the binder YCAGHLPQYVSKCL (cysteine pairing not given here; also: fused to phage pIII protein, pIII and linker sequence not given here, Peptide-87 library clone on clonal phage (crude supernatant); not shown: fused to the pIII filament protein of the bacteriophage) [Phage-1283] turned out to be 0.7

Measured Phage binding ELISA, Anti-CD28 Fab (SEQ ID NOs: 696, 697) signal, YCDGHNPVYLAKCL (cysteine pairing not given here; also: fused to phage pIII protein, pIII and linker sequence not given here, Peptide-87 library clone on clonal phage (crude supernatant); not shown: fused to the pIII filament protein of the bacteriophage) [Phage-1277] : 0.74
